Every entry's value here was drawn from paper PMC8450086.

Molecular target: T1, KicGAS (Kaposi sarcoma-associated herpesvirus …, UniProt Q2HR80 1-131)
T1 sequence: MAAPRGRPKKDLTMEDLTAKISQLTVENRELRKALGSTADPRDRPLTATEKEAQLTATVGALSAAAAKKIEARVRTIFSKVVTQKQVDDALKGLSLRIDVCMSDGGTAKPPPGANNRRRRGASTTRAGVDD
Test: fluorescence polarization; Hill n 2.21; EMSA: 20 mM Tris-HCl pH 7.4, 150 mM NaCl, 10% glycerol, on ice, 20 nM FAM-DNA, gel at 4 C; FP: 400 pg/ul FAM-DNA, buffer and temperature not stated; Hill fits
Details: protein: recombinant; tags: Avi-His6-SUMO removed (tag-free); label: 5' FAM
measured-metric: pKd
pKd here: minus log base 10 of the concentration, concentration in moles per litre.

Reported pKd of ssVACV72 (ssDNA) DNA: ATCCATCAGAAAGAGGTTTAATATTTTTGTGAGACCATCGAAGAGAGAAAGAGATAAAACTTTTTTACGACT : 6.89
